tested on: T1, Redβ single strand annealing protein (bacteriophage λ, UniProt P03698)
T1 sequence: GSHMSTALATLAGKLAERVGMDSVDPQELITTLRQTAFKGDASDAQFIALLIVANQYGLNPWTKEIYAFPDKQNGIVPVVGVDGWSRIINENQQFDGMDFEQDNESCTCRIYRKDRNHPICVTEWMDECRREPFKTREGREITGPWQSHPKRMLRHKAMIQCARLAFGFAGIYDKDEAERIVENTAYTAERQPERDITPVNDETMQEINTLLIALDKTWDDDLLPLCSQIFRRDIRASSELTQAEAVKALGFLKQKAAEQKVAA
protocol details: EMSA; PBS, ssDNA alone; EMSA: 10 uM Redβ, 50 uM nt DNA, 37 C, in PBS, or 20 mM Tris-HCl pH 7.5/10 mM NaCl/10 mM MgCl2, or 50 mM ammonium acetate pH 7.0; SEC-MALS: PBS, complexes formed
condition info: protein: recombinant; tags: N-terminal GSH left after thrombin removal of 6xHis; chain copies: 11; label: 5'-Cy3

binder	binding result
GCCCTGCATAGCTCGATTTT (ssDNA) [Cy3 20mer]	no binding
TGCATAGCTCGATTTT (ssDNA) [Cy3 16mer]	no binding
AATCGCCCTGCATAGCTCGATTTT (ssDNA) [Cy3 24mer]	no binding
GCAGAATCGCCCTGCATAGCTCGATTTT (ssDNA) [Cy3 28mer]	no binding
